Reference source for all entries: paper PMC8740702

Provide the reported Kd of each item.
molecular target: X. citri VirD4 all-alpha domain (VirD4AAD) (Xanthomonas citri); test: ITC
Record the result as a number with its unit.

Solved entries (count: 2):
{"substance": "XAC2609_(XVIPCD) D363A (from UniProt A0AAI7ZGC7 311-431) (domain or fragment)", "Kd": "29 µM"}
{"substance": "XAC2609_(XVIPCD) D383A/P384A (from UniProt A0AAI7ZGC7 311-431) (domain or fragment)", "Kd": "28 µM"}

The record that follows has no Kd shown yet.
Form: substance = XAC2609_(XVIPCD) H315A/P316A/D317A (from UniProt A0AAI7ZGC7 311-431) (domain or fragment) ; Kd = 1.2 µM
